ASSAY_SYSTEM: DCP2 enzyme (Schizosaccharomyces pombe)
Construct: purchased New England Biolabs
Sequence (O13828 1-243 limits assumed): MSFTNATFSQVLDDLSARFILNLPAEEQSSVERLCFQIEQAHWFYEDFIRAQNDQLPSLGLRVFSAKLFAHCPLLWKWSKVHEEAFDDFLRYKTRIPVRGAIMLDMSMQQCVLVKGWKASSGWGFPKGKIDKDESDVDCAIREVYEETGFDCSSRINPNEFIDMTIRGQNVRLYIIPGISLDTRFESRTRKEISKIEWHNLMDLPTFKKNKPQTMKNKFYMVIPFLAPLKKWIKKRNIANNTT
Sequence (Q9P805 whole entry partner): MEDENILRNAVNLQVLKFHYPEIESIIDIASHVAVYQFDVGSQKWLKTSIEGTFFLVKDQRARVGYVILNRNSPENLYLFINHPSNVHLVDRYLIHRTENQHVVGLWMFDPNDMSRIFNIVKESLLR
Sequence (Q10108 155-180 partner limits assumed): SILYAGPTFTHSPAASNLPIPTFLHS
ASSAY_PROCEDURE: Decapping enzyme stability test
Format: biochemical
APPLIED_CONDITIONS: 50 U mRNA decapping enzyme, 37° C., 45 minutes
EXPERIMENTAL_ENDPOINT: Decapping rate (%) of DCP2 enzyme

{"columns": ["COMPOUND", "RECORDED_MEASUREMENT"],
 "data": [
  ["CCO[C@@H]1[C@H](OP(=O)(O)OC[C@H]2O[C@@H](n3cnc4c(=O)[nH]c(N)nc43)[C@H](O)[C@@H]2O)[C@@H](COP(=O)(O)OP(=O)(O)OP(=O)(O)OC[C@H]2O[C@@H]([n+]3cn(C)c4c(=O)[nH]c(N)nc43)[C@H](O)[C@@H]2O)O[C@H]1n1cnc2c(N)ncnc21 [CAP-2′O-ethyl, reference compound]", "28.3%"],
  ["CO[C@@H]1[C@H](OP(=O)(O)OC[C@H]2O[C@@H](n3cnc4c(=O)[nH]c(N)nc43)[C@H](O)[C@@H]2O)[C@@H](COP(=O)(O)OP(=O)(O)OP(=O)(O)OC[C@H]2O[C@@H]([n+]3cn(C)c4c(=O)[nH]c(N)nc43)[C@H](O)[C@@H]2C(C)NC(C)=O)O[C@H]1n1cnc2c(N)ncnc21 (stereo partly drawn)", "16.3%"],
  ["CCN(CC)C(=O)[C@H]1[C@@H](O)[C@H]([n+]2cn(C)c3c(=O)[nH]c(N)nc32)O[C@@H]1COP(=O)(O)OP(=O)(O)OP(=O)(O)OC[C@H]1O[C@@H](n2cnc3c(N)ncnc32)[C@H](OC)[C@@H]1OP(=O)(O)OC[C@H]1O[C@@H](n2cnc3c(=O)[nH]c(N)nc32)[C@H](O)[C@@H]1O", "11.5%"]
]}
